Assay: NCI Yeast Anticancer Drug Screen. Data for the bub3 strain (AID 167)
Details: S. cerevisiae bub3 mutant strain, at 100.0 µM, hits give high values
The panel holds about 79,000 compounds, 15% with a hit somewhere; the sample as a whole holds those more often.
readoutKind: growth inhibition (%)
Hi! Could you send only the number? It should be in %, unit omitted.

Documented growth inhibition of `Cc1nc2ccccc2cc1C[N+]12CN3CN(CN(C3)C1)C2` : 26

Documented growth inhibition of `CC[C@@]1(O)C(=O)OCc2c1cc1n(c2=O)Cc2cc3ccccc3nc2-1` : 96

Documented growth inhibition of `O=S(=O)(O)c1ccc(Cl)cc1.[Cd]` : 30

Documented growth inhibition of C[C@@]12CCC(=O)C=C1CC[C@H]1C2=CC[C@]2(C)C1CC[C@@]2(C)O (some centres undefined) : 96

Documented growth inhibition of `[Pt].c1ccc(P(CCP(c2ccccc2)c2ccccc2)CCP(c2ccccc2)c2ccccc2)cc1` : 95

Documented growth inhibition of `O=C1NC(=S)NC(=O)C1=Cc1ccc([N+](=O)[O-])o1` : 53

Documented growth inhibition of CC1CCCN(CCc2ccccc2)CC1 (centres undefined) : 25

Documented growth inhibition of O=C1C2CC(Cl)C(SSC3CC4C(=O)N(SC(Cl)(Cl)C(Cl)Cl)C(=O)C4CC3Cl)CC2C(=O)N1SC(Cl)(Cl)C(Cl)Cl (centres undefined) : 90

Documented growth inhibition of CC1=C(O)C(=O)C=C2C1=CC=C1[C@@]2(C)CCC2(C)[C@@H]3C[C@@H](C)C(=O)C[C@]3(C)CC[C@]12C (some centres undefined) : 96

Documented growth inhibition of CC[C@@]1(O)C[C@H](OC2CC(N(C)C)C(O)C(C)O2)c2c(O)c3c(c(O)c2[C@H]1OC1CC(N(C)C)C(O)C(C)O1)C(=O)c1cccc(O)c1C3=O (some centres undefined) : 84

Documented growth inhibition of O=C1c2ccccc2C(=O)C(Cl)C1Cl (centres undefined) : 99

Documented growth inhibition of `O=C(Nc1cc(Cl)ccc1Cl)C(Cl)(Cl)Cl` : 12

Documented growth inhibition of `CC(=O)O/C(=C1\C[C@H]2[C@@H]3CC=C4C[C@@H](OC(C)=O)CC[C@]4(C)[C@H]3CC[C@]2(C)C1=O)C(F)(F)F` : 6

Documented growth inhibition of C[C@]12CCC3[C@@H](CC[C@@H]4c5nonc5CC[C@]34C)C1CCC2=O (some centres undefined) : 72

Documented growth inhibition of CCC1(O)C(=O)OCc2c1cc1n(c2=O)Cc2cc3ccccc3nc2-1 (centres undefined) : 10

Documented growth inhibition of O=C(c1ccccc1)C1C(c2ccccc2[N+](=O)[O-])N1C1CCCCC1 (centres undefined) : 87

Documented growth inhibition of CC1CC(C)CC(C)C(O)/C(C#N)=C/C=C/CC(C2CCCC2C(=O)O)OC(=O)CC(O)C(C)C1 (centres undefined) : 98

Documented growth inhibition of O=[N+]([O-])O.[NH-]C1CCCCC1[NH-].[NH-]C1CCCCC1[NH-].[NH-]C1CCCCC1[NH-].[OH-].[OH-].[OH-].[Pt+4].[Pt+4].[Pt+4] (centres undefined) : -9

Documented growth inhibition of `[N-]=[N+]=C1C(Cl)=C(Cl)C(Cl)=C1Cl` : 99

Documented growth inhibition of `CS(=O)(=O)OCCN(CCOS(C)(=O)=O)c1ccc(C=O)cc1` : 72

Documented growth inhibition of O=C1c2ccc3ccccc3c2CCC1N1CCCCC1 (centres undefined) : 97

Documented growth inhibition of O=C(O)C1C2c3ccccc3C(c3ccccc32)C1C(=O)O (centres undefined) : -2

Documented growth inhibition of CCC1(O)C(=O)OCc2c1cc1n(c2=O)Cc2c-1nc1ccccc1c2OC (centres undefined) : -13

Documented growth inhibition of `Cc1cccc(NC(=O)CBr)c1` : 99

Documented growth inhibition of Cc1c(N)nc([C@H](CC(N)=O)NC[C@H](N)C(N)=O)nc1C(=O)N[C@H](C(=O)N[C@H](C)[C@@H](O)[C@H](C)C(=O)N[C@H](C(=O)NCCc1nc(-c2nc(C(=O)NCCC[S+](C)C)cs2)cs1)[C@@H](C)O)C(OC1OC(CO)C(O)C(O)C1OC1OC(CO)C(O)C(OC(N)=O)C1O)c1cnc[nH]1 (some centres undefined) : 91

Documented growth inhibition of COC(=O)C1c2cc3c(c(O)c2C(O)CC1(C)O)C(=O)c1c(O)cc2c(c1C3=O)OC1OC2(C)C(O)C(N(C)C)C1O (centres undefined) : 93

Documented growth inhibition of COC(=O)c1c(C)ccc2c(O)c3c(cc12)C(=O)c1c2c(cc(O)c1C3=O)C1(C)OC(C)(O2)C(O)C(N(C)C)C1O (centres undefined) : 89

Documented growth inhibition of `Cc1ccc(P(c2ccc(C)cc2)c2ccc(C)cc2)cc1` : 75

Documented growth inhibition of CC1=C[C@H]2O[C@@H]3C[C@H]4OC(=O)/C=C\C=C\C(C(C)O)OCC(O)C(C)CC(=O)OC[C@@]2(C[C@@H]1O)[C@]4(C)[C@@]31CO1 (some centres undefined) : 97

Documented growth inhibition of `C[C@]12CC[C@H](O)CC1=CC[C@@H]1[C@@H]2CC[C@]2(C)C(=O)CC[C@@H]12` : 92

Documented growth inhibition of `Nc1ccc(Cl)cc1C(=O)c1ccccc1` : 96

Documented growth inhibition of `O=c1c2ccccc2[se]n1-c1cccnc1` : 91

Documented growth inhibition of `CC(C)(C)c1cc([N+](=O)[O-])cc([N+](=O)[O-])c1O` : 21

Documented growth inhibition of `COc1ccc(OC)c(/C=C/[N+](=O)[O-])c1` : 99

Documented growth inhibition of C[N+](C)(C)CC1CCCC(C[N+](C)(C)C)C1=O (centres undefined) : 99

Documented growth inhibition of `Oc1c(Br)cc(Br)cc1Br` : 87

Documented growth inhibition of `O=C(O)c1ccccc1.[Ag]` : 99

Documented growth inhibition of `COc1ccc(/C=C(/C)[N+](=O)[O-])cc1` : 98

Documented growth inhibition of `Oc1cccnc1[Se]` : 63
